- Tested on: NF-κB pathway (SEAP) in THP1-Dual cells
- experimental_protocol: THP-1 Dual cell SEAP assay (L18-MDP stimulated)
- Type: cell-based
- recorded_conditions: Homo sapiens, THP1-Dual, read-out: NFkB THP1 IC50
Entries and their measured IC50 follow.

# annotated cases, reported IC50 shown
COc1cc2ncc(-c3cnc(N)cc3F)n2cc1S(=O)(=O)C(C)(C)C = > 1000 nM
COc1cc2ncc(-c3cc(N)c(OCCO)c(F)c3)n2cc1S(=O)(=O)C(C)(C)C = 50 to 250 nM
COc1cc2ncc(-c3cc(F)c(OC)c(OC)c3)n2cc1S(=O)(=O)C(C)(C)C = > 1000 nM
COc1cc2ncc(-c3cc(F)c(N)cc3F)n2cc1S(=O)(=O)C(C)(C)C = 250 to 1000 nM

## Input Entry COc1cc2ncc(-c3cc(F)c(N)nc3OC(C)C)n2cc1S(=O)(=O)C(C)(C)C : reported IC50 = ?
## Output > 1000 nM

## Input Entry COc1cc2ncc(-c3ccc(N)c(Cl)c3)n2cc1S(=O)(=O)C(C)(C)C : reported IC50 = ?
## Output 250 to 1000 nM

## Input Entry CC(C)(C)S(=O)(=O)c1cn2c(-c3cc(F)c(N)nc3F)cnc2cc1OC(F)F : reported IC50 = ?
## Output > 1000 nM

## Input Entry COc1cc2ncc(-c3cc(N)c(C#N)c(F)c3)n2cc1S(=O)(=O)C(C)(C)C : reported IC50 = ?
## Output 250 to 1000 nM

## Input Entry CCOc1cc2ncc(-c3cc(F)nc(NCCCO)c3)n2cc1S(=O)(=O)C(C)C : reported IC50 = ?
## Output < 50 nM

## Input Entry COc1cc2ncc(-c3ccc(F)c(N)c3F)n2cc1S(=O)(=O)C(C)(C)C : reported IC50 = ?
## Output > 1000 nM

## Input Entry COc1cn2ncc(-c3ccc(N)c(C#N)c3)c2cc1S(=O)(=O)C(C)(C)C : reported IC50 = ?
## Output 250 to 1000 nM

## Input Entry COc1cc2ncc(-c3cc(F)nc(NC[C@@H](C)O)c3)n2cc1S(=O)(=O)C(C)(C)C : reported IC50 = ?
## Output < 50 nM

## Input Entry Nc1nc(F)c(-c2cnc3ccccn23)cc1F : reported IC50 = ?
## Output > 1000 nM

## Input Entry COc1cc2ncc(-c3cc(F)nc(N[C@@H]4CC[C@@H](O)C4)c3)n2cc1S(=O)(=O)C(C)(C)C (racemic) : reported IC50 = ?
## Output < 50 nM

## Input Entry COc1cc2ncc(-c3cc(F)c(OC)c(Br)c3)n2cc1S(=O)(=O)C(C)(C)C : reported IC50 = ?
## Output > 1000 nM

## Input Entry CCCS(=O)(=O)Nc1cc(-c2cnc3cc(OC)c(S(=O)(=O)C(C)(C)C)cn23)ccc1F : reported IC50 = ?
## Output 250 to 1000 nM

## Input Entry CCCS(=O)(=O)Nc1cc(-c2cnc3cc(OC)c(S(=O)(=O)C(C)(C)C)cn23)cc(C#N)c1OC : reported IC50 = ?
## Output 250 to 1000 nM

## Input Entry COc1cc2ncc(-c3cc(F)nc(OCCCO)c3)n2cc1S(=O)(=O)C(C)(C)C : reported IC50 = ?
## Output > 1000 nM

## Input Entry COc1cc2ncc(-c3cc(F)nc(NCC4(O)CC4)c3)n2cc1S(=O)(=O)C(C)(C)C : reported IC50 = ?
## Output < 50 nM

These entries and their values trace back to patent US20250346593A1.
